Listed below: pIC50 values for each entry.
biological target: PI3Kγ (p110γ) Recombinant Human Protein (Homo sapiens (Human), UniProt P48736); assay: PI3K-γ Scintillation Proximity Assay; assay type: biochemical; conditions: read-out: PI3K-gamma SPA IC50
Sequence (P48736 whole entry): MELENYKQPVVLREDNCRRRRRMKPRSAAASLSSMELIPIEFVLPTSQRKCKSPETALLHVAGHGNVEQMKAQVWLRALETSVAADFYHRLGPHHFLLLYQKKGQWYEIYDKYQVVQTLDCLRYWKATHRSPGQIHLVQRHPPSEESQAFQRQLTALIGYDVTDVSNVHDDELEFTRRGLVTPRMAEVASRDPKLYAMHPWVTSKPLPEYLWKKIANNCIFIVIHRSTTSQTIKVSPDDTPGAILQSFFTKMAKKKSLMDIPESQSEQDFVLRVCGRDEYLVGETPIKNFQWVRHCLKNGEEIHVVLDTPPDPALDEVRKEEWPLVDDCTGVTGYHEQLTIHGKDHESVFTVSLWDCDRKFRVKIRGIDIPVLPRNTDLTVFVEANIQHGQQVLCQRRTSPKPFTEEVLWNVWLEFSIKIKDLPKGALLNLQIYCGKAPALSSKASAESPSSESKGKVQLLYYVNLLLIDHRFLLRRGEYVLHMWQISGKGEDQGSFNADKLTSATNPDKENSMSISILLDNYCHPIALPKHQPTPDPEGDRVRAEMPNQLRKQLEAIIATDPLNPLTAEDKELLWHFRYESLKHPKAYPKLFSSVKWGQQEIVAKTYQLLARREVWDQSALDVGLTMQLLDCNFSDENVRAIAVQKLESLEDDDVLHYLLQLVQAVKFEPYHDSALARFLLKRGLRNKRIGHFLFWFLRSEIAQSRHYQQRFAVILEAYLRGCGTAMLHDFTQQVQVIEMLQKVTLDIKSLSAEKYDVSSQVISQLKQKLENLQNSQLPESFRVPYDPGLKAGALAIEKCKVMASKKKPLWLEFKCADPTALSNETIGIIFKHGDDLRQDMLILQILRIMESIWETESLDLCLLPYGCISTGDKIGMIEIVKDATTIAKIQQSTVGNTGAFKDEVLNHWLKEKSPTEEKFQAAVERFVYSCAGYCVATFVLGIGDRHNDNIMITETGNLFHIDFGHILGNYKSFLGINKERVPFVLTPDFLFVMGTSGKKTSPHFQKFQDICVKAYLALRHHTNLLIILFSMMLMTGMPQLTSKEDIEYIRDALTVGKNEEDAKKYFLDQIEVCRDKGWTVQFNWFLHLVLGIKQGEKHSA
pIC50: −log10 of the molar value. Counter-ions that a name gives are not always drawn.

The examples below pair each entry with its known result.
- Compound: "CS(=O)(=O)n1cc(-c2ccnc(-c3ncc(-c4ccccc4)[nH]3)c2)cn1 [Example 44, trifluoroacetate salt]"
  pIC50: "< 6.30"
- Compound: "Cc1nc(-c2cc(-c3cnn(Cc4ccc(Cl)cc4)c3)ccn2)[nH]c1C [Example 294, Trifluoroacetate Salt]"
  pIC50: "≥ 7.30"
- Compound: "Cn1nc(C(F)(F)F)cc1-c1ccnc(-c2ncc(-c3ccccc3)[nH]2)c1 [Example 14, trifluoroacetate salt]"
  pIC50: "< 6.30"

Please give the documented pIC50 of c1ccc(-c2cnc(-c3cc(-c4cnn(C5CCNCC5)c4)ccn3)[nH]2)cc1 [Example 25, trifluoroacetate salt]
< 6.30

Numbers sourced from patent US11352340B2.
